- Test method notes: AUC in Sprague-Dawley rat at 5 mg/kg, po
- Format: ADME, organism-based
- Condition details: Sprague-Dawley, in vivo
Value type: AUC (µM·h)
Reply with just the number (in µM·h).

Past entries and their recorded results:
>  <Compound>
COC(=O)N[C@H](C(=O)N1CCC[C@H]1c1ncc(-c2ccc3c(c2)OC(c2cc(F)cc(F)c2)n2c-3cc3cc(-c4cnc([C@@H]5CCCN5C(=O)[C@@H](NC(=O)OC)C(C)C)[nH]4)ccc32)[nH]1)C(C)C (stereo not given in full)

>  <Unit abbrev>
µM·h

>  <Measured number>
1.5

$$$$
>  <Compound>
COC(=O)N[C@H](C(=O)N1CCC[C@H]1c1ncc(-c2ccc3c(c2)OC(c2cccc(F)c2)n2c-3cc3cc(-c4cnc([C@@H]5CCCN5C(=O)[C@@H](NC(=O)OC)C(C)C)[nH]4)ccc32)[nH]1)C(C)C (stereo not given in full)

>  <Unit abbrev>
µM·h

>  <Measured number>
1.5

$$$$
>  <Compound>
COC(=O)N[C@H](C(=O)N1CCC[C@H]1c1ncc(-c2ccc3c(c2)OC(c2ccccc2F)n2c-3cc3cc(-c4cnc([C@@H]5CCCN5C(=O)[C@@H](NC(=O)OC)C(C)C)[nH]4)ccc32)[nH]1)C(C)C (stereo not given in full)

>  <Unit abbrev>
µM·h

>  <Measured number>
0.67

$$$$
>  <Compound>
COC(=O)N[C@H](C(=O)N1CCC[C@H]1c1ncc(-c2ccc3c(c2)OC(c2cccc(Cl)c2)n2c-3cc3cc(-c4cnc([C@@H]5CCCN5C(=O)[C@@H](NC(=O)OC)C(C)C)[nH]4)ccc32)[nH]1)C(C)C (stereo not given in full)

>  <Unit abbrev>
µM·h

>  <Measured number>
1.4

$$$$

As a next step, examine the compound that follows.
Query: Look at this compound and give its reported AUC. COC(=O)N[C@H](C(=O)N1CCC[C@H]1c1ncc(-c2ccc3c(c2)OC(c2ccc(Cl)cc2)n2c-3cc3cc(-c4cnc([C@@H]5CCCN5C(=O)[C@@H](NC(=O)OC)C(C)C)[nH]4)ccc32)[nH]1)C(C)C (stereo not given in full)
Reply: 0.88

###

- Test system: Hepatitis C virus
- Test method notes: Antiviral activity against HCV genotype 2a assessed as replicon RNA level measured after 3 days by real-time PCR method
- Assay type: functional, organism-based, Hepacivirus hominis
- Condition details: 72 h
Recorded measurements of pEC50, one per entry
Scale note: pEC50 = -log10(concentration in M).

>  <Molecule>
COC(=O)N[C@H](C(=O)N1CCC[C@H]1c1ncc(-c2ccc3c(c2)OC(c2cccc(OC)c2)n2c-3cc3cc(-c4cnc([C@@H]5CCCN5C(=O)[C@@H](NC(=O)OC)C(C)C)[nH]4)ccc32)[nH]1)C(C)C (mixture of isomers)

>  <Tested system>
Hepatitis C virus

>  <Value type>
pEC50

>  <Measured number>
11.40

$$$$

As a next step, examine the molecule that follows.
Query: Look at this molecule and give its reported pEC50. COC(=O)N[C@H](C(=O)N1CCC[C@H]1c1ncc(-c2ccc3c(c2)OC(c2cccc(-c4ccccc4)c2)n2c-3cc3cc(-c4cnc([C@@H]5CCCN5C(=O)[C@@H](NC(=O)OC)C(C)C)[nH]4)ccc32)[nH]1)C(C)C (some centres not stated)
Reply: 11.52
